test system: A375 cells; experiment: Inhibition of cancer cell growth, MTT assay, A375; type: cell-based; details: Homo sapiens, A-375, 72 h exposure
pIC50: −log10 of the molar value.
Measurement Label: pIC50

Study these solved cases before continuing.
INSERT INTO results (compound, reported_measurement) VALUES
  ('O=C(Nc1cccc(F)c1)Nc1cc(F)c(F)c(C(=O)c2ccc3ncc(N4CCOCC4)nc3c2)c1 [Compound C039]', '5.30 to 6.00'),
  ('O=C(Nc1ccc(F)cc1)Nc1ccc(F)c(C(=O)c2ccc3nccnc3c2)c1 [Compound C070]', '5.30 to 6.00'),
  ('O=C(Nc1cc(F)cc(C(=O)c2ccc3nccnc3c2)c1)Nc1ccc(Cl)c(F)c1 [Compound C061]', '< 5.30'),
  ('O=C(Nc1cc(F)cc(C(=O)c2ccc3ncc(N4CCOCC4)nc3c2)c1)Nc1ccc(F)c(F)c1 [Compound C049]', '5.30 to 6.00'),
  ('O=C(Nc1cccc(F)c1)Nc1cccc(C(=O)c2ccc3ncc(N4CCOCC4)nc3c2)c1 [Compound C016]', '< 5.30'),
  ('COc1cnc2ccc(C(=O)c3cc(NC(=O)Nc4ccc(F)c(F)c4)ccc3F)cc2n1 [Compound C082]', '5.30 to 6.00');

Task: Item O=C(Nc1cccc(F)c1)Nc1ccc(F)c(C(=O)c2ccc3nccnc3c2)c1F [Compound C011] with A375 cells - pIC50?
Output: < 5.30

Task: # repeat for O=C(Nc1cc(F)c(F)c(C(=O)c2ccc3nccnc3c2)c1F)c1cccc(C(F)(F)F)c1 [Compound C109]
Output: < 5.30

Task: # repeat for O=C(Nc1cc(F)c(F)c(C(=O)c2ccc3nccnc3c2)c1)c1ccc(Cl)c(C(F)(F)F)c1 [Compound C129]
Output: 5.30 to 6.00

Task: # repeat for O=C(Nc1ccc(Cl)cc1)Nc1ccc(F)c(C(=O)c2ccc3ncc(N4CCOCC4)nc3c2)c1 [Compound C054]
Output: > 6.00

Task: # repeat for O=C(Nc1cc(F)cc(Cl)c1)Nc1ccc(F)c(C(=O)c2ccc3ncc(N4CCOCC4)nc3c2)c1 [Compound C059]
Output: 5.30 to 6.00

Task: # repeat for O=C(Nc1ccc(Cl)cc1)Nc1cc(F)cc(C(=O)c2ccc3ncc(N4CCOCC4)nc3c2)c1 [Compound C045]
Output: > 6.00

Task: # repeat for O=C(Nc1cccc(C(=O)c2ccc3ncc(N4CCCC4)nc3c2)c1)c1cccc(C(F)(F)F)c1 [Compound C122]
Output: 5.30 to 6.00

Task: # repeat for O=C(Nc1cc(F)c(F)c(C(=O)c2ccc3ncc(N4CCOCC4)nc3c2)c1F)c1cccc(F)c1 [Compound C137]
Output: < 5.30

Task: # repeat for O=C(Nc1cccc(C(F)(F)F)c1)Nc1ccc(F)c(C(=O)c2ccc3nccnc3c2)c1F [Compound C010]
Output: < 5.30

###

target: KDR (VEGFR2) (Homo sapiens (Human)); assay: Z′-LYTE kinase inhibition assay (Invitrogen), KDR; assay type: biochemical; conditions: 1 μM compound, Z′-LYTE method; read-out: % inhibition at 1 μM against KDR
Sequence (P35968 20-1356): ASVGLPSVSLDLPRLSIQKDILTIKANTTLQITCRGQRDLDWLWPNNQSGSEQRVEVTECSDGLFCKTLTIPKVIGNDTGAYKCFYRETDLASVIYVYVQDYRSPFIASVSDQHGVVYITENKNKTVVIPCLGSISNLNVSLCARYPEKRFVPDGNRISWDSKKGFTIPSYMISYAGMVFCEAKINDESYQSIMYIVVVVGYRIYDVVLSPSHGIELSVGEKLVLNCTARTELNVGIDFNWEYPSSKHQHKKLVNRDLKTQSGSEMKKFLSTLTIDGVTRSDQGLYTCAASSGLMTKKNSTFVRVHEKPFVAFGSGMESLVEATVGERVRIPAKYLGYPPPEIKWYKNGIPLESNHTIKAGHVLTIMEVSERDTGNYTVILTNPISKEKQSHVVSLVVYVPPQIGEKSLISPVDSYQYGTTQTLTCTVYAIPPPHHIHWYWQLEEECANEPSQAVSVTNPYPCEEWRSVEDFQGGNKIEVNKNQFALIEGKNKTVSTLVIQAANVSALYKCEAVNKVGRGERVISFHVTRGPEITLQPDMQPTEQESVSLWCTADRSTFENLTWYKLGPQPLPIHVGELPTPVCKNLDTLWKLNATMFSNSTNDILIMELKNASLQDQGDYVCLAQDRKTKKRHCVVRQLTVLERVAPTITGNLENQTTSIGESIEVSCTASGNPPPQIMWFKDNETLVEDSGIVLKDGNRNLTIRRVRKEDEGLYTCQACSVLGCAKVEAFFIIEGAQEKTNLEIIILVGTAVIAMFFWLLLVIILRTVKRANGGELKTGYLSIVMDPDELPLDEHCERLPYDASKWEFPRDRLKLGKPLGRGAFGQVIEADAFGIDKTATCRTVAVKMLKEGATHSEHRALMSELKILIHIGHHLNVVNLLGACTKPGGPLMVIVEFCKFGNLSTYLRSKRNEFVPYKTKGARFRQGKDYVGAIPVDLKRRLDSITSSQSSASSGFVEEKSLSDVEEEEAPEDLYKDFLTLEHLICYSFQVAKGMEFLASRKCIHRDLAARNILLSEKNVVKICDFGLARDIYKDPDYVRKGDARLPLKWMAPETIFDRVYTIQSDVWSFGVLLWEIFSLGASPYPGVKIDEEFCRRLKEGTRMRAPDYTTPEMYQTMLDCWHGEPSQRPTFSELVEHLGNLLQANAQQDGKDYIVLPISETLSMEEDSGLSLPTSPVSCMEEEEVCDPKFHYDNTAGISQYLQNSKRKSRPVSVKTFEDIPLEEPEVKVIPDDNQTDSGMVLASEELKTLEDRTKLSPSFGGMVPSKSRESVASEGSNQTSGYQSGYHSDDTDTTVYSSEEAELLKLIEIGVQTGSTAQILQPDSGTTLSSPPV
Measurement Label: inhibition at 1 µM

INSERT INTO assay_data (molecule_smiles, measurement_label, reported_measurement) VALUES
  ('O=C(Nc1cccc(C(F)(F)F)c1)Nc1cc(F)c(F)c(C(=O)c2ccc3nccnc3c2)c1', 'inhibition at 1 µM', '< 70%'),
  ('O=C(Nc1cccc(F)c1)Nc1cccc(C(=O)c2ccc3ncc(N4CCOCC4)nc3c2)c1', 'inhibition at 1 µM', '70 to 89%');

Task: GET /values?readout=inhibition at 1 µM&item= O=C(Nc1cc(F)cc(C(=O)c2ccc3nccnc3c2)c1)Nc1ccc(Cl)c(F)c1
Output: < 70%

Origin of the recorded values: patent US10759766B2
